test: kinase inhibitors against Plasmodium liver-stage infection, cell-based, known kinase inhibitor set, luminescence, hepatoma host viability (AID 624392); conditions: Plasmodium liver stage in hepatoma cells, luciferase luminescence, concentration not given here; stronger effect = lower value;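 also: infected cells incubated roughly two days before readout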
Measured parasite % of control, listed per entry.
All answers are understood in %, so give the number only.

smiles_input	parasite % of control, %
Cc1nc2sc3c(N)ncnc3c2c(C)c1C	42

Ask: Determine from records and report parasite % of control for CS(=O)(=O)CCNCc1ccc(-c2ccc3ncnc(Nc4ccc(OCc5cccc(F)c5)c(C(F)(F)F)c4)c3c2)o1
Result: 99.7

Ask: Read off the recorded parasite % of control for CNC(=O)c1cncc(/C=C/c2ccccc2C)c1
Result: 27.9

Ask: For Fc1ccc(-c2ncn(C3CCNCC3)c2-c2ccnc(Oc3cccc(C(F)(F)F)c3)n2)cc1 , write its parasite % of control.
Result: 156

Ask: Give the value of parasite % of control reported for the following: CCS(=O)(=O)c1ccc(OC)c(Nc2ncc(-c3ccccc3Cl)o2)c1
Result: 36.8

* * *

experiment: CellTiter-Glo luminescent readout of SW480 viability loss, NPC library primary (AID 1117343); settings: CellTiter-Glo luminescence; at 20 µM (top of the series)
value_type: viability decrease (inhibition) (%)
Entry rule: numbers only, all in %.

Example entries and their recorded answers appear below.
compound	quantity_unit	viability decrease (inhibition)
CC(=O)O[C@H]1CC[C@@]2(C)C(=CC[C@@H]3[C@@H]2CC[C@]2(C)C(C(C)=O)=CC[C@@H]32)C1	%	60.1
CN(C)C(=S)SC(=S)N(C)C	%	35.3
CC(C)CCOC(=O)c1ccc(N(C)C)cc1	%	-6.9
O=C(O)C(Cc1cc(I)c(O)c(I)c1)c1ccccc1 (configuration not stated)	%	50.4
CCC(=O)O[C@]1(C(=O)CCl)[C@@H](C)C[C@H]2[C@@H]3CCC4=CC(=O)C=C[C@]4(C)[C@@]3(F)[C@@H](O)C[C@@]21C	%	41

For the next question, use this compound.
Ask: Provide only the value of recorded viability decrease (inhibition) for COC1=CC(=O)C[C@@H](C)[C@]12Oc1c(Cl)c(OC)cc(OC)c1C2=O
Result: 64.1

* * *

As shown below, each of these compounds has a reported z-score value.
assay: survival rescue of mitochondrial mutant cells in low glucose, primary screen, MELAS cybrids, Rieske KO mouse fibroblasts, CellTiter-Glo (AID 1508586); details: Rieske KO mouse fibroblast survival, CellTiter-Glo 72 h;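 also: z relative to plate mean and SD of compound and empty wells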
Lab note: write the figure by itself, no unit.

Ask: Give me measured z-score, please, for this compound: CC(C)=Cc1cccc2[nH]c(O)c(N=Nc3ccc(S(N)(=O)=O)cc3)c12
Result: 0.0676

Ask: Give me measured z-score, please, for this compound: O=C(NC1NNC2CC(c3ccccc3)CCC21)C1CC1 (stereo not given)
Result: -0.221

Ask: Tell us which z-score value is on record for NC(=O)c1sc(-n2cnc3cc(C(F)(F)F)ccc32)cc1OCc1ccccc1Br
Result: -0.5

Ask: Provide only the value of recorded z-score for CCn1c(-c2nonc2N)nc2cnc(Oc3cccc(NC(=O)c4ccc(N(C)C)cc4)c3)cc21
Result: 0.0229

Ask: Please give the documented z-score of Cc1cc(O)cc(C)c1/C=C/c1cncc(C(=O)N(C)C)c1
Result: -0.0339

Ask: Determine from records and report z-score for CCCN1CCCC(c2ccc(Nc3nc(Nc4cc(F)ccc4C(N)=O)c4cc[nH]c4n3)c(OC)c2)C1 (stereo not given)
Result: 4.23

Ask: Complete the entry with z-score for CCn1c(-c2nonc2N)nc2ccc(F)cc21
Result: 0.0939

Ask: Identify measured z-score corresponding to COc1ccc2cc(-c3c(-c4ccncc4)nc(-c4ccc(S(C)=O)cc4C)n3C)ccc2c1 (stereo not given)
Result: -0.0858

Ask: Identify measured z-score associated with COC(=O)c1cncc(/C=C/c2c(C)cc(O)cc2C)c1
Result: 0.14

Ask: Hello, please tell me recorded z-score for this one: COc1cc(N2CCN(C(C)C)CC2)ccc1Nc1nc(Nc2ccc(F)cc2C(=O)NC[C@@H](O)CO)c2cc[nH]c2n1
Result: 0.239

Ask: # return recorded z-score for input CN1CCN(Cc2ccc(-c3cc4ncnc(Nc5ccc(OCc6cccc(F)c6)c(Cl)c5)c4s3)o2)CC1
Result: -0.538

Ask: Give me measured z-score, please, for this compound: Cc1nnc(-c2ccc(C)c(-c3ccc(C(=O)Nc4cccc(C#N)c4)cc3)c2)o1
Result: -0.283

Ask: Tell me its z-score given O=C(Nc1n[nH]c2nc(-c3ccco3)ccc12)C1CC1 as the entry.
Result: -0.343

* * *

test: stimulators of insulin release from INS-1E, primary screen, cell-based, 5 mM glucose, NPC library (AID 1117329); settings: rat INS-1E insulin secretion, at 10 µM, stronger effect = higher value
Calls of active or inactive are those of the source.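 The calls were made as follows: active = compound raises insulin release from rat beta cells at 5 mM glucose, no numeric limit stated; inactive = the rest.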
value_type: insulin secretion stimulation

Examples with answers:
molecule	insulin secretion stimulation
CC(C)[N+](C)(C)CC(O)COc1cccc2ccccc12 (stereo unspecified)	2.4% (inactive)
Oc1ccc(CCNCCCCCCNCCc2ccccc2)cc1O	27.8% (active)
Nc1ccc(/C=C/c2ccc(N)cc2S(=O)(=O)O)c(S(=O)(=O)O)c1	0.1% (inactive)

Ask: Look up and state reported insulin secretion stimulation for OC[C@]1(O)OC[C@@H](O)[C@H](O)[C@@H]1O
Result: -1.9% (inactive)

Ask: Give me measured insulin secretion stimulation, please, for this molecule: CC[C@@]1(O)C(=O)OCc2c1cc1n(c2=O)Cc2c-1nc1ccccc1c2/C=N/OC(C)(C)C
Result: 2.9% (inactive)

Ask: Please look at this molecule and report its insulin secretion stimulation: Cc1cc(NS(=O)(=O)c2ccc(N)cc2)nc(C)n1
Result: -1.1% (inactive)

* * *

experiment: JHH-DIPG-1 glioma cell viability, MIPE5.0 library, CellTiter-Glo luminescence, qHTS (AID 1347067); conditions: JHH-DIPG-1 glioma viability, CellTiter-Glo ATP luminescence;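 also: cells exposed to compound for 48 hours before readout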
Inconclusive results are not listed. The source made the active and inactive calls. The limit is not given here; nearly all actives have AC50 up to about 26 µM.
Outcome field: choose from 1.0 (active), 0.0 (inactive)

Example entries and their recorded answers appear below.
molecule	label_value
NNC(=O)c1ccncc1	0.0
CC(=O)OCC(CCn1cnc2cnc(N)nc21)COC(C)=O	0.0
O=C(O)c1cc(=O)c2c(OCC(O)COc3cccc4oc(C(=O)O)cc(=O)c34)cccc2o1	0.0
C[C@]12C=CC(=O)C=C1CC[C@@H]1[C@@H]2C(=O)C[C@@]2(C)[C@H]1CC[C@]2(O)C(=O)CO	0.0
COC(=O)Nc1nc2ccc(C(=O)c3ccccc3)cc2[nH]1	1.0
CCC(=O)O[C@]1(C(=O)CCl)[C@@H](C)C[C@H]2[C@@H]3CCC4=CC(=O)C=C[C@]4(C)[C@@]3(F)[C@@H](O)C[C@@]21C	0.0
CCc1nc(N)nc(N)c1-c1ccc(Cl)cc1	0.0
Nc1nc2c(ncn2COCCO)c(=O)[nH]1	0.0
C/C=C/C(=O)N(CC)c1ccccc1C	0.0
Cc1ccc(C)c(OCCCC(C)(C)C(=O)O)c1	0.0

Ask: Please share the test call associated with N[C@@H]1CONC1=O .
Result: 0.0

Ask: State the result this test recorded for CC1COc2c(N3CCN(C)CC3)c(F)cc3c(=O)c(C(=O)O)cn1c23 (stereo not given) .
Result: 0.0

Ask: Lab log entry: CN[C@H]1CC[C@@H](c2ccc(Cl)c(Cl)c2)c2ccccc21 — outcome as called in the assay?
Result: 1.0

Ask: Any idea what this test logged for Nc1ncn([C@@H]2O[C@H](CO)[C@@H](O)[C@H]2O)c(=O)n1 ?
Result: 1.0

Ask: Give the logged outcome of this assay for the following molecule: C#C[C@]1(O)CC[C@H]2[C@@H]3CCC4=CC(=O)CC[C@@H]4[C@H]3CC[C@@]21CC
Result: 0.0

Ask: // return assay outcome for CC(C[N+](C)(C)C)OC(N)=O (stereo not given)
Result: 0.0

Ask: How did this test come out for CCc1cc(C(N)=S)ccn1 ?
Result: 0.0

Ask: Please indicate how the test categorized Oc1c(Cl)cc(Cl)c2cccnc12 .
Result: 1.0

Ask: How was CC1=C(/C=C/C(C)=C/C=C/C(C)=C/C(=O)O)C(C)(C)CCC1 classified in this test?
Result: 0.0

* * *

assay: activators of macrophage pro-inflammatory response, cell-based, murine, luminescence (AID 652131); conditions: murine macrophage pro-inflammatory reporter, stronger effect = higher value
Active and inactive are the calls of the source. The rule behind the calls is not given here.
The entries below are paired with their reported z-score.

Take a look at these entries with their results.
smiles_input	measured_result
C#Cc1cccc(Nc2ncnc3ccc(OCCCCNCCS(C)(=O)=O)cc23)c1	-0.695 (inactive)
CCn1c(-c2nonc2N)nc2c(C#CC(C)(C)O)nc(OC[C@H](N)c3ccccc3)cc21	-1.25 (inactive)
Fc1ccc(-c2ncn(C3CCNCC3)c2-c2ccnc(Oc3ccc(Cl)cc3)n2)cc1	-0.186 (inactive)
COc1ccc2c(-c3ccnc(Nc4cccc(OC(F)(F)F)c4)n3)cnn2n1	-0.916 (inactive)

Now turn to the next compound.
Ask: Consider the compound FC(F)(F)c1ccc(-c2nn3ncccc3c2-c2ccnc(Nc3ccc4c(c3)OCCO4)n2)cc1 . State its measured z-score.
Result: 0.358 (inactive)
